Tested on: SK-MEL-2 melanoma
Test: NCI-60 one-dose screen, 48 h (100 = growth as untreated, 0 = no growth, -100 = all killed)
Conditions: 10 µM unless noted
About 83,000 compounds went through this panel and 20% of them were active in at least one assay; those are over-represented in the sample as a whole.

compound | tested.system | growth / %
N#[N+]c1nc2nc(N)[nH]c(=O)c2[nH]1 | SK-MEL-2 melanoma | 101
CC1COC(=O)C1 (stereo not drawn) | SK-MEL-2 melanoma | 99.3
O=C1NC(=S)NC(=O)C1=Cc1ccccc1 | SK-MEL-2 melanoma | 196
C[C@]12CC[C@@H]3C4=C(CC[C@H]3[C@@H]1CC[C@@H]2O)CC(=O)CC4 | SK-MEL-2 melanoma | 127
CCOc1cc(C=C(C#N)C#N)cc(Br)c1O | SK-MEL-2 melanoma | 102
CC(C)(C)NCC(O)c1ccccc1Cl (stereo not drawn) | SK-MEL-2 melanoma | -20.2
C[CH2][Pb]([CH2]C)([CH2]C)[O]C(=O)COc1ccccc1 | SK-MEL-2 melanoma | -0.355
C/C1=C/C(=O)O[C@@H]2C[C@@H](CC[C@H](C)/C=C\C=C\CC1)O[C@@](OCCc1ccccc1)([C@@H]1CSC(=O)N1)C2 | SK-MEL-2 melanoma | 67.7
CNC(=O)Oc1ccccc1-c1ccccc1 | SK-MEL-2 melanoma | 76.3
CC1(C)N=C(N)N=C(N)N1c1ccc(CCC(=O)Nc2cccc(S(=O)(=O)F)c2)cc1 | SK-MEL-2 melanoma | 102
COC1=CC(=O)OC(CCc2ccc3c(c2)OCO3)C1 (stereo not drawn) | SK-MEL-2 melanoma | 97.4
c1ccc2nc(OCCN3CC3)ccc2c1 | SK-MEL-2 melanoma | 96.3
CCOCC1(CCc2ccccc2)C(=O)NC(=S)NC1=O | SK-MEL-2 melanoma | 103
CC[C@]12C=CCN3CC[C@@]4(c5ccc(OC)cc5N(C)[C@H]4[C@@](O)(C(=O)OC)[C@@H]1OC(=O)CCCN1CCN(CCCC(=O)O[C@@H]4[C@]5(CC)C=CCN6CC[C@@]7(c8ccc(OC)cc8N(C)[C@H]7[C@@]4(O)C(=O)OC)[C@@H]65)CC1)[C@@H]32 | SK-MEL-2 melanoma | -75.7
NC(=O)OCC(CO)(c1ccccc1)c1ccccc1 | SK-MEL-2 melanoma | 110
O=C(O)CNC(=O)c1ccccc1 | SK-MEL-2 melanoma | 97.2
CC(C)CCC1(CCO)C(=O)NC(=S)NC1=O | SK-MEL-2 melanoma | 101
c1ccc(CCN2CCCCC2Cc2ccccc2)cc1 (stereo not drawn) | SK-MEL-2 melanoma | 87.7
O=S(=O)(O)c1ccc(-c2ccc([As](=O)(O)O)cc2)cc1 | SK-MEL-2 melanoma | 101
O=CN1N=C(c2ccc3c(c2)OCO3)CC1c1sc(N(CCCl)CCCl)nc1Cl (stereo not drawn) | SK-MEL-2 melanoma | 92.9
CCCCCCCC(=O)OCC/C=C/C1OC1C1OC(=O)/C=C\C=C\c2nc(oc2C)/C=C(/C)CCC2OC2C1OC(=O)NC(C)=O (stereo not drawn) | SK-MEL-2 melanoma | -44.5
Oc1ccc(Br)cc1CN1CCN(Cc2ccc(Cl)cc2)CC1 | SK-MEL-2 melanoma | 88.2
COc1ccc(NP2(=O)OCC(C)(N)CO2)cc1 (stereo not drawn) | SK-MEL-2 melanoma | 108
